system: SmLux; test: Computationally generated LgLux variants expressed in E. coli, tested in lysates with SmLux and substrate 1c; assay type: biochemical; conditions: Table 22, 50 uM substrate 1c
Catalogue of Baseline Signal (Normalized by expression) readings, one per entry.
Please give the numeric answer without any surrounding text.

Reference set, count: 2
# molecule, measured_result
data = [
    ("MBIO-5376: computationally generated LgLux, SEQ ID NO 2791 (protein) MTPEERIADVRAFYAALASGDLEAAKALFDPGVTITLWDGTTFTSVEEFRAWFEEQFKTSKDALREIESIEVDGDTVRVLVRLSFTRNGQKHTVDLLQLFKFI", 409.4),
    ("MBIO-5367: computationally generated LgLux, SEQ ID NO 2782 (protein) MTPEELRQNLLRFYEALDSGDAVAAASLFNSGVTITLWDGATFTSIEKFREWFDTQFKTSKDALREIESLEVDGDTVRVTVRLTFTSDGEEQVVDLLQLFKFV", 231.6),
]

Value of measured Baseline Signal (Normalized by expression) for the entry MBIO-5381: computationally generated LgLux, SEQ ID NO 2796 (protein) MTPEERIANVLAFYAALASGDLEAAKALFNPGVTITLWDGTTFTSVEEFRAWFEEQFKTSKDALREIESIEVDGDTVRVLVRLTFVRDGEEKVVDLLQLFKFV : 158.6
